Origin of values: ChEMBL document CHEMBL1201862

Each entry below lists one item and its recorded GI50 value.
system: HOP-62; assay: NCI tumour cell line growth inhibition, 48 h
Activity calls are given as the source filed them. Rule as the data show it: active = GI50 up to about 1.1 µM and inactive = higher.

molecule=O=C(c1ccc(Cl)c(Cl)c1)N(C(=O)N1CCN(c2ccccc2)CC1)S(=O)(=O)c1ccccc1 readout_name=GI50 test_result="31.6 µM (inactive)"
molecule="COc1ccc(CC2c3cc(Oc4cc(CC5c6cc(OC)c(OC)cc6CCN5C)ccc4O)c(OC)cc3CCN2C)cc1 (stereo not given)" readout_name=GI50 test_result="7.93 µM (inactive)"
molecule="Cc1ccc(/N=N/c2c(C)c(C#N)c(=S)n(C3OC(CO)C(O)C(O)C3O)c2C)cc1 (stereo not given)" readout_name=GI50 test_result="34.3 µM (inactive)"
molecule="COc1ccc(/C=C2\\CCC(CNc3ccc(Br)cc3)C2=O)cc1 (stereo not given)" readout_name=GI50 test_result="> 100 µM (inactive)"

Okay, now this molecule:
Consider the molecule CC12CC3(O)OC(O1)C1(COC(=O)c4ccccc4)C3CC21OC1OC(CO)C(O)C(O)C1O (stereo not given) and give its measured GI50. > 100 µM (inactive)
